FYI, the data here is from patent US20240366589A1.

Please respond with reported Urine P % of control for every item in the list.
# Test system: phosphorus and calcium levels in the urine of rats
# protocol.summary: Urinary excretion of phosphate and calcium in rats (16 h overnight urine)
# Type: in vivo, rat
# test.parameters: rats, oral gavage, dose 10 mg/kg, 16 h post-dose
Give bare numbers, in %.

CN(C)[C@H]1Cc2c(Cl)cc(Cl)cc2[C@@H]1Oc1ccc(S(=O)(=O)NCCOCCOCCNC(=O)NCCCCNC(=O)NCCOCCOCCN(C)S(=O)(=O)c2ccc(O[C@H]3c4cc(Cl)cc(Cl)c4C[C@@H]3N(C)C)cc2)cc1; 49
N=C(N)Nc1nc(-c2cccc(N3CCN(CCOCCOCCOCCNC(=O)CCOCCOCCOCCOCCOCCOCCOCCC(=O)NCCOCCOCCOCCN4CCN(c5cccc(-c6nc(NC(=N)N)nc7ccc(Cl)cc67)c5)CC4)CC3)c2)c2cc(Cl)ccc2n1; 122
O=C(NCCOCCOCCNS(=O)(=O)c1ccc(O[C@H]2c3ccccc3C[C@@H]2N2CCCCC2)cc1)c1ccc(C(=O)NCCOCCOCCNS(=O)(=O)c2ccc(O[C@H]3c4ccccc4C[C@@H]3N3CCCCC3)cc2)cc1; 68
C/C(=C\c1cc(F)c(Oc2ccc(S(=O)(=O)NCCOCCOCCOCCNC(=O)CN(C)CC(=O)NCCOCCOCCOCCNS(=O)(=O)c3ccc(Oc4c(F)cc(/C=C(\C)C(=O)N=C(N)N)cc4F)cc3)cc2)c(F)c1)C(=O)N=C(N)N; 77
O=C(NCCCCNC(=O)NCCOCCOCCNC(=O)Nc1cccc(O[C@H]2c3ccccc3C[C@@H]2N2CCCCC2)c1)NCCOCCOCCNC(=O)Nc1cccc(O[C@H]2c3ccccc3C[C@@H]2N2CCCCC2)c1; 94

List Urine P % of control for every entry below, keeping the order given.
1. CN(C)[C@H]1Cc2c(Cl)cc(Cl)cc2[C@@H]1Oc1ccc(S(=O)(=O)NCCOCCOCCNC(=O)NCCCCNC(=O)NCCOCCOCCNS(=O)(=O)c2ccc(O[C@H]3c4cc(Cl)cc(Cl)c4C[C@@H]3N(C)C)cc2)cc1
2. O=C(CCOCCOCCOCCOCCOCCC(=O)NCCOCCOCCOCCNS(=O)(=O)c1ccc(OC2c3ccccc3CC2N2CCCCC2)cc1)NCCOCCOCCOCCNS(=O)(=O)c1ccc(OC2c3ccccc3CC2N2CCCCC2)cc1 (stereo not drawn)
3. N=C(N)Nc1nc(-c2cccc(OCCOCCOCCOCCNC(=O)NCCOCCOCCNC(=O)CN(CCN(CC(=O)O)CC(=O)NCCOCCOCCNC(=O)NCCOCCOCCOCCOc3cccc(-c4nc(NC(=N)N)nc5ccc(Cl)cc45)c3)CC(=O)O)c2)c2cc(Cl)ccc2n1
4. COCCNS(=O)(=O)c1cccc(C2CN(C)Cc3c(Cl)cc(Cl)cc32)c1 (stereo not drawn)

A:
[53, 59, 102, 80]

---

# target.of.assay: Human NHE3 (Homo sapiens)
# Construct: expressed in transfected cells; host or cells: Opossum kidney (OK) cells (ATCC), electroporation
# Sequence (P48764 26-834): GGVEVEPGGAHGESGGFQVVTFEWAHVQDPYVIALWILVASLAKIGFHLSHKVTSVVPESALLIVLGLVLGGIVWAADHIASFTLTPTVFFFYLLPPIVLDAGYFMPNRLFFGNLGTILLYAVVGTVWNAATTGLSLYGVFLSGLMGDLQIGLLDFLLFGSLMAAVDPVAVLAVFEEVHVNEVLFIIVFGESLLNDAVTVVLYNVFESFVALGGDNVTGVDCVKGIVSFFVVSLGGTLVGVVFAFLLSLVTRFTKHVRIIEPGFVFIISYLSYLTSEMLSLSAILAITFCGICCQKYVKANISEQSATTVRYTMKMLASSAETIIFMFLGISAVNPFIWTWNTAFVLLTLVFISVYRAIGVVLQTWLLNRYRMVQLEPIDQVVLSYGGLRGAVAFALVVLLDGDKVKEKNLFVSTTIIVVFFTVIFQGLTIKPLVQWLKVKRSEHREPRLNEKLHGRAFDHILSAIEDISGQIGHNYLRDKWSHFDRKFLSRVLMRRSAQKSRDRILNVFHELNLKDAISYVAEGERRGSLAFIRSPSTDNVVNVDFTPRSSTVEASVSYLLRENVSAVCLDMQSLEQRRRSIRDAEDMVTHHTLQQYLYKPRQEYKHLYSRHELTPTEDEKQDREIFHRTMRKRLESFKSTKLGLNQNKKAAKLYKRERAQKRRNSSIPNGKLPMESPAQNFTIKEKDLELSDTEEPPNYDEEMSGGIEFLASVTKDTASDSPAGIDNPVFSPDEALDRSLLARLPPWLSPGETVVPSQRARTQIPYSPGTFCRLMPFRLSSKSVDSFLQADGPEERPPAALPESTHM
# protocol.summary: Cell-based NHE3 activity under prompt conditions (OK cells, BCECF pH recovery), human NHE3
# test.parameters: prompt conditions
measurement.label: Prompt Human NHE3 pIC50
Answers are plain numbers.

Use the examples below as a reference point.
NCCOCCOCCNS(=O)(=O)c1ccc(O[C@H]2c3cc(Cl)cc(Cl)c3C[C@@H]2N2CCCCC2)cc1 [compound 62]; 7.25
CN1Cc2c(Cl)cc(Cl)cc2[C@H](c2cccc(S(=O)(=O)NCCOCCOCCN(C)C(=O)CCC(N)(CCC(=O)N(C)CCOCCOCCNS(=O)(=O)c3cccc([C@@H]4CN(C)Cc5c(Cl)cc(Cl)cc54)c3)CCC(=O)N(C)CCOCCOCCNS(=O)(=O)c3cccc([C@@H]4CN(C)Cc5c(Cl)cc(Cl)cc54)c3)c2)C1 [compound 175]; 7.40
CN1Cc2c(Cl)cc(Cl)cc2[C@H](c2cccc(S(=O)(=O)NCCOCCOCCNC(=O)NCCC(CCNC(=O)NCCOCCOCCNS(=O)(=O)c3cccc([C@@H]4CN(C)Cc5c(Cl)cc(Cl)cc54)c3)(CCNC(=O)NCCOCCOCCNS(=O)(=O)c3cccc([C@@H]4CN(C)Cc5c(Cl)cc(Cl)cc54)c3)NC(=O)COCC(=O)O)c2)C1 [compound 172]; 7.10

List Prompt Human NHE3 pIC50 for every entry below, keeping the order given.
1. C[C@@H](O)[C@H](NC(=O)NC(CCC(=O)NCCOCCOCCNS(=O)(=O)c1cccc([C@@H]2CN(C)Cc3c(Cl)cc(Cl)cc32)c1)(CCC(=O)NCCOCCOCCNS(=O)(=O)c1cccc([C@@H]2CN(C)Cc3c(Cl)cc(Cl)cc32)c1)CCC(=O)NCCOCCOCCNS(=O)(=O)c1cccc([C@@H]2CN(C)Cc3c(Cl)cc(Cl)cc32)c1)C(N)=O [compound 159]
2. O=C(NCCCCNC(=O)NCCOCCOCCNS(=O)(=O)c1ccc(O[C@H]2c3ccccc3C[C@@H]2N2CCCCC2)cc1)NCCOCCOCCNS(=O)(=O)c1ccc(O[C@H]2c3ccccc3C[C@@H]2N2CCCCC2)cc1 [compound 66]
3. O=C(CCOCCOCCOCCOCCOCCC(=O)NCCOCCOCCOCCNS(=O)(=O)c1ccc(OC2c3ccccc3CC2N2CCCCC2)cc1)NCCOCCOCCOCCNS(=O)(=O)c1ccc(OC2c3ccccc3CC2N2CCCCC2)cc1 (stereo not shown) [compound 53]
4. CN(C)[C@H]1Cc2ccc(F)cc2[C@@H]1Oc1ccc(S(=O)(=O)NCCOCCOCCNC(=O)NCCCCNC(=O)NCCOCCOCCNS(=O)(=O)c2ccc(O[C@H]3c4cc(F)ccc4C[C@@H]3N(C)C)cc2)cc1 [compound 136]
5. O=C(NCCOCCOCCNS(=O)(=O)c1ccc(O[C@H]2c3ccccc3C[C@@H]2N2CCCCC2)cc1)c1ccc(C(=O)NCCOCCOCCNS(=O)(=O)c2ccc(O[C@H]3c4ccccc4C[C@@H]3N3CCCCC3)cc2)cc1 [compound 100]
6. CN(C)[C@H]1Cc2c(Cl)cc(Cl)cc2[C@@H]1Oc1ccc(S(=O)(=O)NCCOCCOCCNC(=O)CCC(C)(N)CCC(=O)NCCOCCOCCNS(=O)(=O)c2ccc(O[C@H]3c4cc(Cl)cc(Cl)c4C[C@@H]3N(C)C)cc2)cc1 [compound 174]

A:
1: 7.30; 2: 8.35; 3: 7.40; 4: 7.70; 5: 8.30; 6: 8.53

List Prompt Human NHE3 pIC50 for every entry below, keeping the order given.
1. N=C(N)Nc1nc(-c2cccc(S(=O)(=O)NCCOCCOCCN)c2)c2cc(Cl)ccc2n1 [compound 7]
2. CN1Cc2c(Cl)cc(Cl)cc2[C@H](c2cccc(S(=O)(=O)NCCOCCOCCOCCNC(=O)c3cc(C(=O)NCCOCCOCCOCCNS(=O)(=O)c4cccc([C@@H]5CN(C)Cc6c(Cl)cc(Cl)cc65)c4)cc(C(=O)NCCOCCOCCOCCNS(=O)(=O)c4cccc([C@@H]5CN(C)Cc6c(Cl)cc(Cl)cc65)c4)c3)c2)C1 [compound 56]

A:
1: 7.20; 2: 7.00

List Prompt Human NHE3 pIC50 for every entry below, keeping the order given.
1. C/C(=C\c1cc(F)c(Oc2ccc(S(=O)(=O)NCCOCCOCCOCCNC(=O)N3CCN(C(=O)NCCOCCOCCOCCNS(=O)(=O)c4ccc(Oc5c(F)cc(/C=C(\C)C(=O)N=C(N)N)cc5F)cc4)CC3)cc2)c(F)c1)C(=O)N=C(N)N [compound 31]
2. CN(CC(=O)NCCOCCOCCNC(=O)NCCOCCOCCOCCOc1ccc(-c2nc(NC(=N)N)nc3ccc(Cl)cc23)cc1)CC(=O)NCCOCCOCCNC(=O)NCCOCCOCCOCCOc1ccc(-c2nc(NC(=N)N)nc3ccc(Cl)cc23)cc1 [compound 34]

A:
1. 7.70
2. 8.20

List Prompt Human NHE3 pIC50 for every entry below, keeping the order given.
1. O=C(NCCOCCOCCNS(=O)(=O)c1ccc(O[C@H]2c3ccccc3C[C@@H]2N2CCCCC2)cc1)c1cccc(C(=O)NCCOCCOCCNS(=O)(=O)c2ccc(O[C@H]3c4ccccc4C[C@@H]3N3CCCCC3)cc2)c1 [compound 101]
2. CN1Cc2c(Cl)cc(Cl)cc2[C@H](c2cccc(S(=O)(=O)NCCOCCOCCNC(=O)CCC(CCC(=O)NCCOCCOCCNS(=O)(=O)c3cccc([C@@H]4CN(C)Cc5c(Cl)cc(Cl)cc54)c3)(CCC(=O)NCCOCCOCCNS(=O)(=O)c3cccc([C@@H]4CN(C)Cc5c(Cl)cc(Cl)cc54)c3)NC(=O)N[C@@H](CO)C(=O)O)c2)C1 [compound 163]
3. CN1Cc2c(Cl)cc(Cl)cc2[C@H](c2cccc(S(=O)(=O)NCCOCCOCCNC(=O)COCC(=O)NCCOCCOCCNS(=O)(=O)c3ccc(O[C@H]4c5ccccc5C[C@@H]4N4CCCCC4)cc3)c2)C1 [compound 97]

A:
[8.10, 7.60, 8.50]
